Every entry's value here was drawn from BindingDB's records for doi:10.1016/s1388-1981(99)00164-x.

The listing below reports pKi for molecules tested on Prostaglandin D2 receptor (Homo sapiens).
Sequence (Q13258 whole entry): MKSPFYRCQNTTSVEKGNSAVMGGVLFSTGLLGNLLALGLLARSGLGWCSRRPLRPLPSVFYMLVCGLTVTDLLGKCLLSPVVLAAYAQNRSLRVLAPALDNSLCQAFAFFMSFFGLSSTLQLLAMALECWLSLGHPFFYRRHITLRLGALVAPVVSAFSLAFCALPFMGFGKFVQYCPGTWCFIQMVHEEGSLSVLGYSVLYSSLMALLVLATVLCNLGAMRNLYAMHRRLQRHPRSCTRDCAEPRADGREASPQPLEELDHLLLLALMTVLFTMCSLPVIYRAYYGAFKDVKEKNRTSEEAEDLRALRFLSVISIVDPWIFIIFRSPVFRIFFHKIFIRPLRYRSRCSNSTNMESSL
Value format note: pKi is -log10 of concentration (mol/L); just state the number.

# molecule, measured_parameter, experimental_value
data = [
    ("CC#CCC(C)[C@H](O)/C=C/[C@@H]1[C@H]2C/C(=C/CCCC(=O)O)C[C@H]2C[C@H]1O (stereo not given in full)", "pKi", 5.99),
]

// switching to the query molecule
Query CCCCC[C@H](O)/C=C/C1[C@H](O)C[C@H](O)[C@@H]1C/C=C\CCCC(=O)O (stereo not given in full) on Prostaglandin D2 receptor (Homo sapiens); pKi returned: 6.06

###

pKi: −log10 of the molar value.
Observed pKi for Prostaglandin D2 receptor (Homo sapiens), reported per entry below.

Guide cases for pKi, answers given:
# compound, experimental_value
rows = [
    ("O=C(O)CCCC=CCC1C(O)CC(O)C1C=CC(O)COc1cccc(C(F)(F)F)c1 (stereo not drawn) [CAS_40666-16-8]", "< 5.00"),
    ("CCCCC(C)(O)CC=CC1C(O)CC(=O)C1CCCCCCC(=O)OC (stereo not drawn) [MISOPROSTOL (Methyl Ester)]", "< 5.00"),
]

Would you kindly look at the next entry?
# value of pKi, Prostaglandin D2 receptor (Homo sapiens), item CS(=O)(=O)NC(=O)CCCC=CCC1C(=O)CC(O)C1C=CC(O)COc1ccccc1 (stereo not drawn) [CAS_60325-46-4] = < 5.00
